# Species on record: Homo sapiens
# EXPERIMENTAL DETAILS: Liver toxicity in human assessed as induction of drug-induced liver injury by measuring verified drug-induced liver injury concern status
READOUT NAME: DILI_Concern

Consider the reported DILI_Concern for these compounds:
Value of measured DILI_Concern for the entry CCC1=C(C)CN(C(=O)NCCc2ccc(S(=O)(=O)NC(=O)N[C@H]3CC[C@H](C)CC3)cc2)C1=O [GLIMEPIRIDE] : Less-Dili-Concern

DILI_Concern for Nc1ccc(O)c(C(=O)O)c1 is Less-Dili-Concern

In plain terms, CNCCCC1c2ccccc2C=Cc2ccccc21 has a documented DILI_Concern of No-Dili-Concern

Form: compound = Cc1cn([C@H]2C=C[C@@H](CO)O2)c(=O)[nH]c1=O ; DILI_Concern = Most-Dili-Concern

Sure, the documented DILI_Concern for Nc1ncnc2c1ncn2CCOCP(=O)(O)O is Less-Dili-Concern

More entries:
Value of DILI_Concern reported for the compound CCCCC[C@](C)(O)/C=C/[C@@H]1[C@@H](C/C=C\CCCC(=O)O)[C@@H](O)C[C@H]1O.NC(CO)(CO)CO is No-Dili-Concern

The reported DILI_Concern of the compound CC(=O)Nc1ccc(O)cc1 was Most-Dili-Concern
